# ASSAY NAME: Clearance in Sprague-Dawley rat at 2 mg/kg, iv measured after 24 hrs by LC-MS/MS analysis
# Type: ADME, organism-based
# PROTOCOL CONDITIONS: in vivo
READOUT KIND: clearance (L/h/kg)
Give bare numbers, in L/h/kg.

Query: What clearance value was documented for this compound, Fc1ccc(C2(Cn3cncn3)COC(c3ccc(-c4ccccc4F)cc3)=N2)cc1 (stereo unspecified) ?
Result: 0.648

----------
# System: Pichia kudriavzevii
# ASSAY NAME: Antifungal activity against Candida krusei GIM2.1 assessed as inhibition of fungal growth by NCCLS protocol based method
# Type: functional
Hi there, I'd appreciate the recorded MIC for every entry that follows.

// below: answered molecules
[[record]]
molecule = "c1ccc(-c2ccc(C3=NC(Cn4cnnn4)(c4ccccc4)CO3)cc2)cc1 (stereo not drawn)"
readout_kind = "MIC"
measured_value = "> 64 µg/mL"

[[record]]
molecule = "c1ccc(-c2ccc(C3=NC(Cn4cncn4)(c4ccccc4)CO3)cc2)cc1 (stereo not drawn)"
readout_kind = "MIC"
measured_value = "0.25 µg/mL"

[[record]]
molecule = "Fc1cccc(C2(Cn3cncn3)COC(c3ccc(-c4ccccc4F)cc3)=N2)c1 (stereo not drawn)"
readout_kind = "MIC"
measured_value = "> 64 µg/mL"

[[record]]
molecule = "Fc1cc(-c2ccccc2)ccc1C1=NC(Cn2cncn2)(c2ccccc2)CO1 (stereo not drawn)"
readout_kind = "MIC"
measured_value = "> 64 µg/mL"

[[record]]
molecule = "Fc1ccccc1-c1ccc(C2=NC(Cn3cncn3)(c3ccccc3)CO2)cc1 (stereo not drawn)"
readout_kind = "MIC"
measured_value = "0.5 µg/mL"


Please look at the items below and tell me MIC for each one, in order.
1. Fc1cccc(-c2ccc(C3=NC(Cn4cncn4)(c4ccc(F)cc4F)CO3)cc2)c1 (stereo not drawn)
2. Fc1cc(F)cc(-c2ccc(C3=NC(Cn4cncn4)(c4ccccc4)CO3)cc2)c1 (stereo not drawn)

Result:
1. 0.25 µg/mL
2. > 64 µg/mL

Query: Quick check: MIC of FC(F)(F)c1ccc(-c2ccc(C3=NC(Cn4cncn4)(c4ccccc4)CO3)cc2)cc1 (stereo not drawn) ?
Result: > 64 µg/mL

----------
For each record, write down the corresponding MIC.
# Tested on: Candida tropicalis
# ASSAY NAME: Antifungal activity against Candida tropicalis GIM2.183 assessed as inhibition of fungal growth by NCCLS protocol based method
# Assay type: functional
Answers are plain numbers, in µg/mL.

Past entries and their recorded results:
[[record]]
compound = "Fc1cccc(-c2ccc(C3=NC(Cn4cncn4)(c4ccccc4)CO3)cc2)c1 (stereo not given)"
system_name = "Candida tropicalis"
unit_symbol = "µg/mL"
measured_value = 0.06

[[record]]
compound = "Fc1cccc(-c2ccc(C3=NC(Cn4cncn4)(c4ccc(Cl)cc4)CO3)cc2)c1 (stereo not given)"
system_name = "Candida tropicalis"
unit_symbol = "µg/mL"
measured_value = 0.06

[[record]]
compound = "Fc1cccc(C2(Cn3cncn3)COC(c3ccc(-c4ccccc4F)cc3)=N2)c1 (stereo not given)"
system_name = "Candida tropicalis"
unit_symbol = "µg/mL"
measured_value = 0.25


Each of the following entries comes with a recorded value; kindly state MIC for each.
1. Fc1ccc(C2(Cn3cncn3)COC(c3ccc(-c4ccccc4F)cc3)=N2)c(F)c1 (stereo not given)
2. Fc1ccc(-c2ccc(C3=NC(Cn4cncn4)(c4ccccc4)CO3)cc2)cc1 (stereo not given)
3. Fc1ccccc1-c1ccc(C2=NC(Cn3cncn3)(c3ccccc3)CO2)cc1 (stereo not given)
4. Fc1cc(C2=NC(Cn3cncn3)(c3ccccc3)CO2)ccc1-c1ccccc1 (stereo not given)
5. Fc1cccc(-c2ccc(C3=NC(Cn4cncn4)(c4cccc(F)c4)CO3)cc2)c1 (stereo not given)
6. Fc1ccc(C2(Cn3cncn3)COC(c3ccc(-c4ccccc4F)cc3)=N2)cc1 (stereo not given)

Result:
[0.06, 8, 0.06, 0.06, 0.25, 0.06]

Count: 3. Required value per item: MIC.
1. CC1(Cn2ccnc2)COC(c2ccc(-c3ccccc3)cc2)=N1 (stereo not given)
2. OC(Cn1cncn1)(Cn1cncn1)c1ccc(F)cc1F
3. Fc1ccc(C2(Cn3cncn3)COC(c3ccc(-c4cccc(F)c4)cc3)=N2)cc1 (stereo not given)

Result:
1: 4; 2: 1; 3: 0.06
